Biological target: T1, MotA D43K, full length (bacteriophage T4, UniProt P22915 1-211, D43K)
T1 sequence (looked up): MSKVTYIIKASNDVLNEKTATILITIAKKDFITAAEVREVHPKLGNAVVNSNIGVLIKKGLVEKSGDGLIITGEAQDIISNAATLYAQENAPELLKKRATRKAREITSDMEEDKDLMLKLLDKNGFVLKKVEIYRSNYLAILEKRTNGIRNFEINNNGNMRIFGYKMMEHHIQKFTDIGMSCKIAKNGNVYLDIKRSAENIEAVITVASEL
Assay: fluorescence polarisation
Where no end group is shown, it is not given here. The star is where a group is joined. FITC = O=C1OC2(c3ccc(O)cc3Oc3cc(O)ccc32)c2ccc(NC(=S)*)cc21
Endpoint: Kd (µM)
Give just the numeric value; µM need not be written.

Asked: Entry {FITC}-PSRSEVLRSFLDD (peptide, UniProt P00579 601-613, looked up) [fluorescein-tagged σ4-H5 peptide (σ^70 residues 601-613)] has what Kd?
Given back: 12

The measurements presented in this section are drawn from paper PMC2631437.
